Recorded solubility, one value per entry.
Assay: Solubility of drug in EGCG or tannic acid solutions (dried down, PBS or water added, 0.22 micron filtered, HPLC or absorbance)
Conditions: water, free solubility in water, no EGCG or tannic acid

[
  {
    "Query smiles": "CC(=O)O[C@@]12CO[C@@H]1C[C@H](O)[C@@]1(C)C(=O)[C@H](O)C3=C(C)[C@@H](OC(=O)[C@H](O)[C@@H](NC(=O)OC(C)(C)C)c4ccccc4)C[C@@](O)([C@@H](OC(=O)c4ccccc4)[C@H]21)C3(C)C",
    "solubility": "5 to 7 µg/mL"
  },
  {
    "Query smiles": "CO[C@H]1C[C@@H]2CC[C@@H](C)[C@@](O)(O2)C(=O)C(=O)N2CCCC[C@H]2C(=O)O[C@H]([C@H](C)C[C@@H]2CC[C@@H](O)[C@H](OC)C2)CC(=O)[C@H](C)/C=C(\\C)[C@@H](O)[C@@H](OC)C(=O)[C@H](C)C[C@H](C)/C=C/C=C/C=C/1C",
    "solubility": "2 to 3 µg/mL"
  }
]

---

Assay: Drug concentrations obtained using EGCG at 50 mg per ml (microscopic check for particulates)
Assay type: physicochemical
Conditions: under a microscope
Description: EGCG at 50 mg/ml and drug at approximately 250 micrograms per ml were dissolved in the listed solvent and dried down in a test tube under nitrogen. 1 ml of water was added, followed by vortexing. The solutions were examined for particulate matter under a microscope. If no particulates were present, the process was repeated with a higher drug amount. All the tested drugs remained in solution at the listed concentrations except for nystatin and hesperidin.
Measurement name: Particulates present

[
  {
    "Compound": "CC(C)(C)[C@]1(O)CC2OC(=O)CC23C(=O)OC2OC(=O)[C@H](O)C231 (some centres unmarked) [bilobalide]",
    "Measurement name": "Particulates present",
    "Test value": "no"
  },
  {
    "Compound": "CC[C@@]1(O)C(=O)OCc2c1cc1n(c2=O)Cc2cc3ccccc3nc2-1",
    "Measurement name": "Particulates present",
    "Test value": "no"
  },
  {
    "Compound": "COc1ccc([C@@H]2CC(=O)c3c(O)cc(O[C@@H]4O[C@H](CO[C@@H]5O[C@@H](C)[C@H](O)[C@@H](O)[C@H]5O)[C@@H](O)[C@H](O)[C@H]4O)cc3O2)cc1O",
    "Measurement name": "Particulates present",
    "Test value": "very"
  },
  {
    "Compound": "CC1C(=O)OC2C(O)C34C5CC(C(C)(C)C)C36C(OC(=O)C6O)OC4(C(=O)O5)C12O (centres unmarked) [ginkgolide B]",
    "Measurement name": "Particulates present",
    "Test value": "no"
  },
  {
    "Compound": "COc1ccc2c(c1)c(CC(=O)O)c(C)n2C(=O)c1ccc(Cl)cc1",
    "Measurement name": "Particulates present",
    "Test value": "no"
  }
]

---

Reported values of solubility for individual entries
Test: physchem
Conditions: aqueous with cosolvent or surfactant or cyclodextrin, thermodynamic from solid, drug concentration solubilised at maximum tannic acid concentration

[
  {
    "Molecule": "CC(=O)O[C@H]1C(=O)[C@@]2(C)[C@H]([C@H](OC(=O)c3ccccc3)[C@]3(O)C[C@H](OC(=O)[C@H](O)[C@@H](NC(=O)c4ccccc4)c4ccccc4)C(C)=C1C3(C)C)[C@]1(OC(C)=O)CO[C@@H]1C[C@@H]2O [paclitaxel]",
    "solubility": "~4800 µg/mL"
  },
  {
    "Molecule": "C[C@@H]1[C@H](O)[C@@H](C)/C=C/C=C/C=C/C=C/C=C/C=C/C=C/[C@H](O[C@@H]2O[C@H](C)[C@@H](O)[C@H](N)[C@@H]2O)C[C@@H]2O[C@](O)(C[C@@H](O)C[C@@H](O)[C@H](O)CC[C@@H](O)C[C@@H](O)CC(=O)O[C@H]1C)C[C@H](O)[C@H]2C(=O)O [amphotericin, amphotericin B]",
    "solubility": "~5700 µg/mL"
  },
  {
    "Molecule": "COc1cc(/C=C/C(=O)CC(=O)/C=C/c2ccc(O)c(OC)c2)ccc1O [curcumin]",
    "solubility": "~12000 µg/mL"
  }
]
